Below: a set of entries, each annotated with reported OD450.
target: T1, CD8α-Fc fusion protein (human); experiment: phage ELISA on coated CD8α-Fc
T1 construct: also called CD8 α-Fc protein; CD8α-Fc tag antigen
T1 sequence (chain, as listed by the source): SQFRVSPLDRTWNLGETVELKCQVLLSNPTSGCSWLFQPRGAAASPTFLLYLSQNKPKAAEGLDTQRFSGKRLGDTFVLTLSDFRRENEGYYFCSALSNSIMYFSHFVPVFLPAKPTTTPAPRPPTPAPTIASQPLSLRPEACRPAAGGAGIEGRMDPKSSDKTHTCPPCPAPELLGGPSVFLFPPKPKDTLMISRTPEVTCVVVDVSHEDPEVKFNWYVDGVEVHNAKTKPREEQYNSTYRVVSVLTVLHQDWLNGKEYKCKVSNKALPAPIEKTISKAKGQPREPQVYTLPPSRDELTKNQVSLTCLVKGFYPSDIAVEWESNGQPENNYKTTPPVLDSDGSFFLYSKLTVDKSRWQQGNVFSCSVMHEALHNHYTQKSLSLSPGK
Output spec: single numeric token, no unit.

phage clone No. 24 (C24) (VHH) VHH: QVQLVESGGGLVQPGGSLRLSCAASGPIFSINTMGWYRQAPGKQRELVATMHSTGSTNYADSVKGRFTISRDNAKKTVYLQMNSLKPDDTAVYYCHVDDTGWGTVDSWGQGIQVTVSS    2.35

Then this binder:
OD450 reading for phage clone No. 37 (C37) (VHH) VHH: QLQLVESGGGLVQAGGSLRLSCAASGLTFEDYAIGWFRQAPGKEREGISCIRIYDGNTYSAESVKGRFTISSDNAKNQVYLQINTLKPEDTAVYYCAAGSYYSCSVYPDYDMDYWGKGTLVTVSS : 3.2
